# Tested on: isolated ischemic rat heart
# assay-procedure: Cardioprotective effect on isolated ischemic rat heart model (Langendorff, 30 min global ischemia / 30 min reperfusion)
# run-parameters: 10 μM; after 30 min reperfusion, baseline 5 mmHg
Reported LVEDP (left ventricular end diastolic pressure) by item:
endpoint-name: LVEDP (left ventricular end diastolic pressure) (mmHg)

{"columns": ["compound", "measured-value"],
 "data": [
  ["N=C(N)NC(=O)c1ccc(-c2cccc(Cl)c2)o1", 16.8],
  ["CS(=O)(=O)O.N=C(N)NC(=O)c1ccc(-c2ccccc2)o1", 30.3],
  ["N=C(N)NC(=O)c1ccc(-c2cccc(Cl)c2Cl)o1", 16.3],
  ["CS(=O)(=O)O.Cc1ccccc1-c1ccc(C(=O)NC(=N)N)o1", 16.5],
  ["CS(=O)(=O)O.N=C(N)NC(=O)c1ccc(-c2ccccc2F)o1", 5.7],
  ["COc1ccccc1-c1ccc(C(=O)NC(=N)N)o1.CS(=O)(=O)O", 38.5],
  ["CS(=O)(=O)O.N=C(N)NC(=O)c1ccc(-c2ccccc2C(F)(F)F)o1", 18.7],
  ["CS(=O)(=O)O.N=C(N)NC(=O)c1ccc(-c2ccccc2[N+](=O)[O-])o1", 34.0],
  ["CS(=O)(=O)O.N=C(N)NC(=O)c1ccc(-c2cc(Cl)ccc2O)o1", 20.7],
  ["CC(C)c1ccc(C(=O)NC(=N)N)cc1S(C)(=O)=O [Cariporide, cariporide, reference compound]", 22.4]
]}

---

# Tested on: isolated ischemic rat heart
# assay-procedure: Cardioprotective effect on isolated ischemic rat heart model (Langendorff, 30 min global ischemia / 30 min reperfusion)
# run-parameters: 10 μM; after 30 min reperfusion, % of value before ischemia
endpoint-name: RPP (rate pressure product, HR × LVDP) (%)

{"columns": ["molecule", "target-of-assay", "measured-value"],
 "data": [
  ["N=C(N)NC(=O)c1ccc(-c2cccc(Cl)c2)o1", "isolated ischemic rat heart", 100.7],
  ["CS(=O)(=O)O.N=C(N)NC(=O)c1ccc(-c2ccccc2)o1", "isolated ischemic rat heart", 72.8],
  ["CC(C)c1ccc(C(=O)NC(=N)N)cc1S(C)(=O)=O [Cariporide, cariporide, reference compound]", "isolated ischemic rat heart", 73.5]
]}
